Below, each of the compounds is paired with its reported EC50 value.
- Test system: recombinant NL-Rluc virus (NL4-3 with Renilla Luciferase gene) in MT-2 cells
- method: Inhibition of HIV replication (NL-Rluc luciferase reporter virus, MT-2 cells)
- Assay type: cell-based, human immunodeficiency virus (HIV)
- runConditions: NL43, 120 h, read-out: EC50 μM
Counter-ions that a name gives are not always drawn.
The answer is to be given in µM; state only the numeric part.

Consider the reported EC50 for these compounds:
In [3]: df
Out[3]:
                                   compound  measuredvalue
0  Cc1nc2cc(-c3ccnc(F)c3)nn2c(-c2cc(F)c3c(c2C)CCCO3)c1C(OC(C)(C)C)C(=O)O (stereo not drawn) [Example 109, TFA salt]           0.27
1  Cc1nc2cc(-c3cccc(-c4ccc5c(cnn5C)c4)c3)nn2c(-c2cc(F)c3c(c2C)CCCO3)c1[C@H](OC(C)(C)C)C(=O)O          0.002

The value of EC50 measured for the compound Cc1ccc(-c2c(C(OC(C)(C)C)C(=O)O)c(C)nc3cc(-c4ccccc4)nn23)cc1 (stereo not drawn) [Example 41, TFA salt] turned out to be 0.6

These data points were gathered from patent US8633200B2.
